Tested on: 786-0
Test: NCI tumour cell line growth inhibition, 48 h
Active and inactive are the calls of the source. Rule as the data show it: active = GI50 up to about 1.1 µM and inactive = higher.
Result category, one only: active, inactive

CC(C)(C)OC(=O)c1ccc(NCC2=C(Br)C(=O)C=CC2=O)cc1 | inactive
Cc1cn2cc(-c3cccs3)nc2s1 | inactive

Query :: Please share the test call associated with CCCCCCCCC(C)CCCCCCCCC(=O)OCC(COP(=O)([O-])OCC[N+](C)(C)C)OC(=O)CCCCCCCCC(C)CCCCCCCC (stereo unspecified) .
Result :: inactive

Query :: Please share the test call associated with CCOC(CN(C)C(=O)OCC(Cl)(Cl)Cl)OCC .
Result :: inactive

Query :: Please share the test call associated with Cc1ccc(C(=O)N(C2CCCCC2)C2CCCCC2)cc1/N=N/N(C)C .
Result :: inactive

Query :: Please share the test call associated with Cc1ccccc1N1C(=O)/C(=C/c2ccc(N(CCC#N)CCC#N)cc2)N=C1c1cc([N+](=O)[O-])ccc1Cl .
Result :: inactive

Query :: Please share the test call associated with CC1(C)C2CC(O)C1(C)CC2=O (stereo unspecified) .
Result :: inactive

Query :: Please share the test call associated with CCOC(=O)C(C(=O)OCC)=C1NC2(c3ccccc3Nc3ccccc32)C(C#N)S1 (stereo unspecified) .
Result :: inactive

Query :: Please share the test call associated with COc1cc(C)c(C2NC(=O)c3ccccc3N2)cc1C (stereo unspecified) .
Result :: active

Query :: Please share the test call associated with COc1ccc(/C=N/n2c(Cc3ccc(Cl)cc3)n[nH]c2=O)cc1 .
Result :: inactive

Query :: Please share the test call associated with O=C(CSc1nnc(-c2ccc(/N=C\c3ccc(Cl)cc3)cc2)o1)Nc1cccc(Cl)c1 .
Result :: inactive

Query :: Please share the test call associated with Cc1nc(C)c(N2CCN(C(=O)O)CC2)c(O)n1 .
Result :: inactive

Query :: Please share the test call associated with c1ccc(-c2cc(-c3ccncc3)cc(-c3ccncc3)n2)cc1 .
Result :: inactive

Query :: Please share the test call associated with Nc1ccc(Oc2ccc(C34CC5CC(C3)CC(c3ccc(Oc6ccc(N)cc6C(F)(F)F)cc3)(C5)C4)cc2)c(C(F)(F)F)c1 .
Result :: inactive

* * *

Tested on: UACC-62
Experiment: NCI tumour cell line growth inhibition, 48 h
Active and inactive are the calls of the source. No stated cut-off is given here; in the data, active = GI50 up to about 1.1 µM and inactive = higher.
# GI50 listing for each entry below

C=CCC1OC(C)(C)Oc2ccc(OCOCCOC)cc21 (stereo not given) | > 100 µM (inactive)

Below: the item to evaluate.
Hey, UACC-62 data for COc1ccc(/C=C/C(=O)c2ccccc2)cc1OC : GI50 came out at 13.4 µM (inactive)

* * *

System: CCRF-CEM
Experiment: NCI tumour cell line growth inhibition, 48 h
Activity calls are given as the source filed them. Cut-off read from the data, not from the text of the source: active = GI50 up to about 1.1 µM and inactive = higher.
observation_type: GI50

Cc1cccc(/C=N/NC(=S)NC(C)(C)C)n1 | 1.64 µM (inactive)
Cc1ccc2[nH]c(=O)c(C(C#N)c3ccccc3)nc2c1 (configuration not stated) | 32.7 µM (inactive)
OC(COC(c1ccccc1)(c1ccccc1)c1ccccc1)C(O)CC1SCCS1 (configuration not stated) | 21.3 µM (inactive)
C1=C\SS/C=C\SS/1 | 2.28 µM (inactive)
C1=C(c2ccccc2)C(N2CCOCC2)Oc2ccccc21 (configuration not stated) | > 100 µM (inactive)
COc1ccc(C2C(Cl)C(=O)N2NC(=O)c2ccc(N)cc2)cc1OC (configuration not stated) | 1.71 µM (inactive)
Cc1cc2c(cc1C)C(=O)/C(=N/Nc1ccc(F)cc1)CCO2 | > 100 µM (inactive)
O=C(c1cccc2cc(O)ccc12)c1cn(CCN2CCOCC2)c2ccccc12 | 4.06 µM (inactive)
Cc1cn([C@@H]2C[C@H](CO)[C@@H]2O)c(=O)[nH]c1=O | > 100 µM (inactive)
CC12CCCCC1(C)C2Sc1ccccc1 (configuration not stated) | 19.7 µM (inactive)

Measured GI50 of Nc1ccccc1-c1noc(=O)[nH]1 : > 100 µM (inactive)

Measured GI50 of Oc1nc(S)nc(SCc2c(Cl)c(Cl)c(Cl)c(Cl)c2Cl)n1 : 15.8 µM (inactive)

Data provenance is ChEMBL document CHEMBL1201862.
